# Assay Info: chemical genetic growth profiling, strain panel (AID 1159580);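 further: tested at 20 µM; growth read once vehicle control cultures reached saturation at 30 °C; lower values mean less growth of the strain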
# Conditions Used: S. cerevisiae deletion strains, growth OD, locus YLR113W, strain HOG1
The campaign covered roughly 5,500 compounds. About 2,000 (36%) were called active. About 18% were inconclusive and are not listed. No stated cut-off is given here; in the data, active means normalized growth mostly below about 0.91 (no sharp cut-off); inconclusive means no clear call, values can overlap the other calls; inactive means mostly above about 0.92. The list shows a part of the results. Where a SMILES comes first, the peptide text is derived from it. Bridges are numbered along the chain shown (N, C = ends). [ ]: non-standard residue; d: D form. The star is where a group is joined. Heptanoyl(6-Me) = CC(C)CCCCC(=O)*; Dab = NCC[CH](N)C(=O)O
I would appreciate it if you answered using one of these outcomes: YES = active, NO = inactive

# Compound, Label
data = [
    ("CCCCCCCCCc1ccc(O)cc1", "YES"),
    ("O=C(NNC(=O)c1csc(-c2cccs2)n1)c1ccc(C(F)(F)F)cc1", "YES"),
    ("CC1=CCc2c(cc3oc(C)cc(=O)c3c2O)OC1", "NO"),
    ("CCn1nc(C)cc1-c1nnc(Sc2ncc([N+](=O)[O-])s2)n1C", "NO"),
    ("CCC(C)C1NC(=O)C(CCN)NC(=O)C(NC(=O)C(CCN)NC(=O)C(NC(=O)C(CCN)NC(=O)CCCCC(C)C)C(C)O)CCNC(=O)C(C(C)O)NC(=O)C(CCN)NC(=O)C(CCN)NC(=O)C(C(C)CC)NC1=O (stereo unspecified) ({Heptanoyl(6-Me)}-[Dab]T[Dab][Dab][Dab]II[Dab][Dab]T; lactam 4-C; configuration not given here)", "NO"),
    ("NCCc1c[nH]c2ccc(O)cc12", "NO"),
    ("OC[C@H]1O[C@H](OCCCc2ccc(O)cc2)[C@H](O)[C@@H](O)[C@@H]1O", "NO"),
    ("O=C(O)c1nc2cc(Cl)c(Cl)cc2[nH]c1=O", "NO"),
    ("NS(=O)(=O)c1cc2c(cc1C(F)(F)F)NCNS2(=O)=O", "NO"),
    ("CCCCCCc1ccc(O)cc1O", "YES"),
]

Tell me the assay call for CC1(C)O[C@@H]2CC3C4C[C@H](F)C5=CC(=O)C=CC5(C)C4C(O)CC3(C)[C@]2(C(=O)CO)O1 (stereo partly specified) please. NO

Reference source: PubChem BioAssay AID1159580
